Tested on: K562
EXPERIMENT_SUMMARY: Cytotoxicity against human K562 cells by MTT assay
Type: functional, cell-based
IC50 strictly less than 30 µg/mL = YES. Otherwise NO.

Regarding "O=C(c1ccc(Cl)cc1)c1nnn2c1NCC2" , kindly confirm whether its IC50 is beneath 30 µg/mL.
YES

Regarding "O=C(c1ccccc1)c1nnn2c1OCC2" , kindly confirm whether its IC50 is beneath 30 µg/mL.
NO

Regarding "CC(=O)c1nnn2c1NCC2" , kindly confirm whether its IC50 is beneath 30 µg/mL.
NO

Regarding "O=C(c1ccccc1)c1nnn2c1NCC2" , kindly confirm whether its IC50 is beneath 30 µg/mL.
NO

Regarding "COc1ccc(C(=O)c2nnn3c2OCC3)cc1" , kindly confirm whether its IC50 is beneath 30 µg/mL.
YES

Regarding "Cc1ccc(C(=O)c2nnn3c2OCC3)cc1" , kindly confirm whether its IC50 is beneath 30 µg/mL.
NO

Regarding "O=C(c1ccccc1)c1nnn2c1NCCC2" , kindly confirm whether its IC50 is beneath 30 µg/mL.
YES

---

Test system: K562
EXPERIMENT_SUMMARY: Cytotoxicity against human K562 cells by MTT assay
Format: functional, cell-based
Consider the following molecules; for each one, report its IC50.
Dear colleague, please return just the value in µg/mL, with no unit written.

IC50 in this record for "Cc1ccc(C(=O)c2nnn3c2NCC3)cc1" : 9.4

IC50 in this record for "COc1ccc(C(=O)c2nnn3c2NCC3)cc1" : 2.8

IC50 in this record for "O=C(c1ccc(Cl)cc1)c1nnn2c1NCCC2" : 3.2

IC50 in this record for "Cc1ccc(C(=O)c2nnn3c2NCCC3)cc1" : 1.5

IC50 in this record for "COc1ccc(C(=O)c2nnn3c2NCCC3)cc1" : 3.4

---

Consider the following compounds; for each one, report its log10 of IC50.
Test system: SK-OV-3
EXPERIMENT_SUMMARY: Cytotoxicity against human SKOV3 cells by MTT assay
Format: functional, cell-based
A difference of one corresponds to tenfold IC50; all values are log10 with IC50 in µg/mL.

log10 of IC50 in this record for "Cc1ccc(C(=O)c2nnn3c2NCCC3)cc1" : 2.09

log10 of IC50 in this record for "Cc1ccc(C(=O)c2nnn3c2OCC3)cc1" : 0.93

log10 of IC50 in this record for "COc1ccc(C(=O)c2nnn3c2NCCC3)cc1" : 2.28

log10 of IC50 in this record for "O=C(c1ccccc1)c1nnn2c1OCC2" : 1.82

log10 of IC50 in this record for "COc1ccc(C(=O)c2nnn3c2NCC3)cc1" : 2.20

log10 of IC50 in this record for "O=C(c1ccc(Cl)cc1)c1nnn2c1OCC2" : 0.93

log10 of IC50 in this record for "COc1ccc(C(=O)c2nnn3c2OCC3)cc1" : 0.98
